Test system: OVCAR-3 ovarian
Test: NCI tumour cell line growth inhibition, 48 h
Measured TGI of individual entries

Worked set:
CCOC(=O)C1C(c2ccc(Cl)cc2Cl)NC(c2ccc(C)cc2)C(C(=O)OC)S1(=O)=O (stereo not drawn); > 100 µM
CN(/N=C1\C(=O)Nc2ccccc21)c1ccccc1; > 100 µM

[in] Given the molecule c1ccc(C2=NC3OC2c2ccccc23)cc1 (stereo not drawn) , what is its reported TGI?
[out] > 10 µM

###

System: HCC-2998 colon
Experiment: NCI tumour cell line growth inhibition, 48 h
measureName: GI50

Worked set:
O=C(/C=C/C12c3ccccc3C(c3ccccc31)C1C(=O)NC(=O)C12)c1ccccn1 (stereo not drawn); 1.88 µM
CCN(CC)Cc1cc(Nc2nc(NC3CCC(N(C)C)CC3)c3ccccc3n2)ccc1OC (stereo not drawn); 10.4 µM

Next item in the queue.
[in] Given the compound N#CC1(c2ccc(NC(=O)c3cccnc3NCc3ccncc3)cc2)CCCC1 , what is its reported GI50?
[out] 25.8 µM

###

Test system: RXF-631 renal
Assay: NCI tumour cell line growth inhibition, 48 h
measureName: TGI

Worked set:
COC(=O)C1C(=O)O[C@@H](c2ccc3c(c2)OCO3)C1C(=O)OC (mixture of isomers); > 100 µM
Cc1nc(N)nc(CCC(=O)Nc2cccc(C(F)(F)F)c2)c1-c1ccc(Cl)cc1; > 100 µM

Next item in the queue.
[in] Given the molecule CCc1ccccc1NC(=O)c1cccc([N+](=O)[O-])c1O , what is its reported TGI?
[out] > 100 µM

###

Test system: SF-295 CNS
Test: NCI tumour cell line growth inhibition, 48 h; in the data active means GI50 below about 0.43 µM; inactive means the rest
Respond with a class label; see t for active, f for inactive

Answered examples (5):
c1ccc(-c2[nH]ncc2-c2ccnc(-c3ccc(OCCn4ccnc4)cc3)c2)nc1; f
Cn1nccc1Nc1nccc(-c2ccn([C@H](CO)c3ccc(Cl)c(F)c3)c(=O)c2)n1; f
CC1(C)N=C(N)N=C(N)N1c1ccc(CCC(=O)Nc2ccc(S(=O)(=O)F)cc2)cc1; f
O=C1NN(C2=NNC3(C(=O)N2)c2ccccc2-c2ccccc23)C(c2ccccc2)=N/C1=C/c1ccc(Cl)cc1; f
CNCc1cccc2c1OCCOCCOCCN(C)S(=O)(=O)c1ccc(cc1)-c1cnc(N)c(n1)C(=O)N2; f

Note: attention shifts to another entry.
[in] I'd appreciate the recorded outcome for Nc1nc2c(c3cnccc13)C(c1ccc(Cl)c(Cl)c1)Cc1cnccc1-2 (stereo unspecified) from this test.
[out] t

###

Measured TGI of individual entries
Test system: PC-3 prostate
Assay: NCI tumour cell line growth inhibition, 48 h

Worked set:
Cc1ccc2cccc(-c3cccc4ccccc34)c2n1; > 100 µM
COC(=O)C(Cc1cn(C(C)n2cc(CC(NC(C)=O)C(=O)OC)c3ccccc32)c2ccccc12)NC(C)=O (stereo not drawn); > 100 µM

[in] Given the compound CC1(C)CC(=O)C2=C(C1)C(c1ccccc1Cl)C1C(=O)CC(C)(C)CC1(O)O2 (stereo not drawn) , what is its reported TGI?
[out] > 100 µM

###

System: RPMI-8226 leukemia
Assay: NCI tumour cell line growth inhibition, 48 h
Measured TGI of individual entries

CSCC[C@@H](NC(=O)[C@H](CC(C)C)NC(=O)C(Cc1cnc[nH]1)NC(=O)CNC(=O)[C@@H](NC(=O)[C@H](C)NC(=O)[C@H](Cc1c[nH]c2ccccc12)NC(=O)[C@H](CCC(N)=O)NC(=O)[C@@H](N)CC(N)=O)C(C)C)C(N)=O (stereo partly drawn); > 100 µM
CC(=O)NNc1nc(C)c(C(=O)NNC(=O)C(=O)Nc2ccc([N+](=O)[O-])cc2[N+](=O)[O-])s1; > 100 µM
Cc1cccc(NC(=O)c2sc3nc4c(cc3c2N)C(=O)CCC4)c1; > 100 µM
COc1ccc2sc3c(NCCCN)nc4ccccc4c3c(=O)c2c1; 3.89 µM
COc1ccc2nc(NC(=O)/C(C#N)=C/c3ccccc3)sc2c1; > 84.5 µM

[in] Given the compound Nc1nc2c(c3cnccc13)C(c1ccc(Cl)c(Cl)c1)Cc1cnccc1-2 (stereo not drawn) , what is its reported TGI?
[out] 12.9 µM

[in] Given the compound O=CC(I)=C(c1ccccc1)c1ccccc1 , what is its reported TGI?
[out] > 59 µM

[in] Given the compound CC(=O)ON1CCCC(P(=O)(OCOC(=O)C(C)(C)C)OCOC(=O)C(C)(C)C)C1=O (stereo not drawn) , what is its reported TGI?
[out] 1.89 µM

###

Tested on: BT-549 breast
Experiment: NCI tumour cell line growth inhibition, 48 h; in the data active = GI50 below about 0.43 µM; inactive = the rest
Respond with a class label; see 1 (yes) = active, 0 (no) = inactive

N#CC1c2ccccc2C=CN1C(=O)CCCl (stereo not given); 0 (no)
COc1ccc2c(c1)c(-c1nc(-c3c[nH]c4ncccc34)cs1)cn2CCCN1CCOCC1; 0 (no)
O=C1C=C[C@H](O)[C@@]2(CO)O[C@@H]12; 0 (no)
Cc1cccc(NC(=O)c2sc3nc4c(cc3c2N)C(=O)CCC4)c1; 0 (no)

Note: attention shifts to another entry.
[in] I'd appreciate the recorded outcome for COC(=O)OC1C(O[C@H]2C[C@H]3[C@@H]4CC=C5C[C@@H](O)CC[C@]5(C)[C@H]4CC[C@]3(C)[C@H]2[C@H](C)C(=O)CCC(C)C)OCC(O)C1OC1OCC(O)C(O)C1OC(=O)c1ccc(OC)cc1 (stereo not given in full) from this test.
[out] 1 (yes)

###

Measured log10 TGI of individual entries
Test system: TK-10 renal
Assay: NCI tumour cell line growth inhibition, 48 h
Heads up: the numbers are on a log10 scale; they represent TGI in µM.

Worked set:
COc1cccc(C2c3cc4c(cc3OC(O)C2C)OCO4)c1OC (stereo not given); 1.72
O=C(/C=C/C12c3ccccc3C(c3ccccc31)C1C(=O)NC(=O)C12)c1ccccn1 (stereo not given); 0.73
CCCCCOc1ccc(/C=N/Nc2cc(C)nc3ccc(Cl)cc23)cc1; 0.50
Cc1c2cccc-2c2cc(O)c3ccccc3c2n1-c1ccc(N(C)C)cc1; 1.51
Nc1nc2c(c3cnccc13)C(c1ccc(Cl)c(Cl)c1)Cc1cnccc1-2 (stereo not given); 0.98

[in] Given the compound O=c1oc2ccc3ccccc3c2cc1-c1cn2ccsc2n1 , what is its reported log10 TGI?
[out] 1.53

###

Test system: UO-31 renal
Test: NCI tumour cell line growth inhibition, 48 h
Measured TGI of individual entries

Worked set:
CCCCCOc1ccc(/C=N/Nc2cc(C)nc3ccc(Cl)cc23)cc1; 2.93 µM
Clc1cccc(-c2sc(-c3cccs3)cc2Cc2cccs2)c1; > 10 µM

[in] Any idea what TGI came out for CC(=O)NNc1nc(C)c(C(=O)NNC(=O)C(=O)Nc2ccc([N+](=O)[O-])cc2[N+](=O)[O-])s1 on UO-31 renal?
[out] > 100 µM

###

Test system: SW-620 colon
Experiment: NCI tumour cell line growth inhibition, 48 h
measureName: TGI

Worked set:
COc1cc2c(N3CCN(C(=O)Nc4ccc(OC(C)C)cc4)CC3)ncnc2cc1OCCCN1CCCCC1; 38.8 µM
CSCC[C@@H](NC(=O)[C@H](CC(C)C)NC(=O)C(Cc1cnc[nH]1)NC(=O)CNC(=O)[C@@H](NC(=O)[C@H](C)NC(=O)[C@H](Cc1c[nH]c2ccccc12)NC(=O)[C@H](CCC(N)=O)NC(=O)[C@@H](N)CC(N)=O)C(C)C)C(N)=O (stereo partly drawn); > 100 µM
COc1ccc(OC)c(/C=C/c2nc(=S)n(-c3ccc(Cl)cc3)[nH]2)c1; > 100 µM

[in] Any idea what TGI came out for Cc1ccccc1-c1nc2c(N)nc(N)nc2nc1N on SW-620 colon?
[out] > 100 µM

[in] Any idea what TGI came out for CC(=O)c1ccc(Oc2c3ccccc3nc3ccccc23)cc1 on SW-620 colon?
[out] 20.5 µM

[in] Any idea what TGI came out for COCOc1ccc(C(=O)Oc2cccc3c2OC(C)(C)O3)c(OCOC)c1 on SW-620 colon?
[out] > 100 µM

[in] Any idea what TGI came out for CSC1=Nc2c(c(C)c(C)n2COC(CO)CO)C2=NC(=O)CN12 on SW-620 colon?
[out] > 100 µM

[in] Any idea what TGI came out for CCN=c1sc2c(n1NC(=O)c1cc3ccc1CCc1ccc(cc1)CC3)C(=O)c1ccccc1C2=O on SW-620 colon?
[out] 1.29 µM

[in] Any idea what TGI came out for COC(=O)CCC(NC(=S)N/N=C/c1cccs1)C(=O)OC (stereo not drawn) on SW-620 colon?
[out] > 100 µM

###

Tested on: HOP-92 NSCLC
Assay: NCI tumour cell line growth inhibition, 48 h
measureName: TGI
Number plus unit, in that order.

Worked set:
O=C(Nc1ccc(N=C=S)cc1Cl)c1cc(Br)cc(Br)c1O; 56 µM
COc1cccc(C2c3cc4c(cc3OC(O)C2C)OCO4)c1OC (stereo not drawn); 8.55 µM

Next item in the queue.
[in] Any idea what TGI came out for Cn1nccc1Nc1nccc(-c2ccn([C@H](CO)c3ccc(Cl)c(F)c3)c(=O)c2)n1 on HOP-92 NSCLC?
[out] 40 µM
